Test system: 171881-019-R-J1-PDC tumor spheroid viability
Assay: Anticancer human tumor 171881-019-R-J1-PDC patient-derived invasive breast carcinoma cell line growth inhibition [PI3K]
Details: second compound 10 µM; first compound 10 µM; hits give low values; spheroids with HUVEC and MSC
Entries whose viability, T/C is below 2% take T; entries at or above 2% take F.

# Molecule, Category
measured = [
    ("CC1(C)CCC(CN2CCN(c3ccc(C(=O)NS(=O)(=O)c4ccc(NCC5CCOCC5)c([N+](=O)[O-])c4)c(Oc4cnc5[nH]ccc5c4)c3)CC2)=C(c2ccc(Cl)cc2)C1 + Cc1nc(NC(=O)N2CCCC2C(N)=O)sc1-c1ccnc(C(C)(C)C(F)(F)F)c1", "F"),
    ("C=CC(=O)N1CCN(c2nc(=O)n(-c3c(C)ccnc3C(C)C)c3nc(-c4c(O)cccc4F)c(F)cc23)C(C)C1 (stereo not given) + Cc1nc(NC(=O)N2CCCC2C(N)=O)sc1-c1ccnc(C(C)(C)C(F)(F)F)c1", "F"),
    ("Cn1ncc(Cl)c1-c1cc(C(=O)NC(CN)Cc2cccc(F)c2)sc1Cl (stereo not given) + CC(Nc1ncnc2nc[nH]c12)c1cc2cccc(Cl)c2c(=O)n1-c1ccccc1", "F"),
]

Prompt: Quick check: viability, T/C of CC1(C)CCC(Nc2ncc(C(F)(F)F)c(-c3c[nH]c4c(P(C)(C)=O)c(C#N)ccc34)n2)CN1 (stereo not given) + Cc1nc(NC(=O)N2CCCC2C(N)=O)sc1-c1ccnc(C(C)(C)C(F)(F)F)c1 under 2%?
Response: T

Prompt: Quick check: viability, T/C of C#Cc1c(F)ccc2cc(O)cc(-c3ncc4c(N5CC6CCC(C5)N6)nc(OCC56CCCN5CC(F)C6)nc4c3F)c12 (stereo not given) + CC(Nc1ncnc2nc[nH]c12)c1cc2cccc(Cl)c2c(=O)n1-c1ccccc1 under 2%?
Response: F

* * *

Tested on: 171881-019-R-J1-PDC tumor spheroid viability
Test: Anticancer human tumor 171881-019-R-J1-PDC cell line growth inhibition [PI3K]; active = viability on the fitted dose curve at most 10% of control; inactive = the rest;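 further: spheroids exposed to compound for 7 days before viability read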
Conditions: second compound 0.0316 µM; first compound 0.949 µM; spheroids with HUVEC and MSC
Returns: one label drawn from active, inactive

Prompt: In this assay, the call recorded for Cn1cnc2c(F)c(Nc3ccc(Br)cc3Cl)c(C(=O)NOCCO)cc21 + Cc1nc(NC(=O)N2CCCC2C(N)=O)sc1-c1ccnc(C(C)(C)C(F)(F)F)c1 was what?
Response: inactive

Prompt: In this assay, the call recorded for Cn1cnc2c(F)c(Nc3ccc(Br)cc3Cl)c(C(=O)NOCCO)cc21 + CC(Nc1ccc2c(c1)OCCn1cc(N3C(=O)OCC3C(F)F)nc1-2)C(N)=O was what?
Response: inactive

Prompt: In this assay, the call recorded for Cn1cnc2c(F)c(Nc3ccc(Br)cc3Cl)c(C(=O)NOCCO)cc21 + COc1c(OCCCN2CCOCC2)ccc2c3n(c(=NC(=O)c4cnc(N)nc4)nc12)CCN3 was what?
Response: active

Prompt: In this assay, the call recorded for Cn1cnc2c(F)c(Nc3ccc(Br)cc3Cl)c(C(=O)NOCCO)cc21 + CC(Nc1ncnc2nc[nH]c12)c1cc2cccc(Cl)c2c(=O)n1-c1ccccc1 was what?
Response: inactive

* * *

Test system: 171881-019-R-J1-PDC tumor spheroid viability
Assay: Anticancer human tumor 171881-019-R-J1-PDC cell line growth inhibition [PI3K];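 further: spheroids exposed to compound for 7 days before viability read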
Settings: second compound 0.1 µM; first compound 0.316 µM; hits give low values; spheroids with HUVEC and MSC
Entries whose viability, T/C is below 60% take rule met; entries at or above 60% take rule not met.

Record excerpt, results attached:
# Compound, Target of assay, Category
measured = [
    ("C#Cc1c(F)ccc2cc(O)cc(-c3ncc4c(N5CC6CCC(C5)N6)nc(OCC56CCCN5CC(F)C6)nc4c3F)c12 (configuration not stated) + CC(Nc1ncnc2nc[nH]c12)c1cc2cccc(Cl)c2c(=O)n1-c1ccccc1", "171881-019-R-J1-PDC tumor spheroid viability", "rule met"),
    ("Cn1nccc1Nc1nccc(-c2ccn(C(CO)c3ccc(Cl)c(F)c3)c(=O)c2)n1 (configuration not stated) + Cc1nc(NC(=O)N2CCCC2C(N)=O)sc1-c1ccnc(C(C)(C)C(F)(F)F)c1", "171881-019-R-J1-PDC tumor spheroid viability", "rule met"),
    ("Cn1nccc1Nc1nccc(-c2ccn(C(CO)c3ccc(Cl)c(F)c3)c(=O)c2)n1 (configuration not stated) + CC(Nc1ccc2c(c1)OCCn1cc(N3C(=O)OCC3C(F)F)nc1-2)C(N)=O", "171881-019-R-J1-PDC tumor spheroid viability", "rule met"),
    ("C#Cc1c(F)ccc2cc(O)cc(-c3ncc4c(N5CC6CCC(C5)N6)nc(OCC56CCCN5CC(F)C6)nc4c3F)c12 (configuration not stated) + CC(Nc1ccc2c(c1)OCCn1cc(N3C(=O)OCC3C(F)F)nc1-2)C(N)=O", "171881-019-R-J1-PDC tumor spheroid viability", "rule met"),
    ("CCN1CCN(Cc2ccc(Nc3ncc(F)c(-c4cc(F)c5nc(C)n(C(C)C)c5c4)n3)nc2)CC1 + Cc1nc(NC(=O)N2CCCC2C(N)=O)sc1-c1ccnc(C(C)(C)C(F)(F)F)c1", "171881-019-R-J1-PDC tumor spheroid viability", "rule not met"),
]

Prompt: Quick check: viability, T/C of CCCS(=O)(=O)Nc1ccc(F)c(C(=O)c2c[nH]c3ncc(-c4ccc(Cl)cc4)cc23)c1F + Cc1nc(NC(=O)N2CCCC2C(N)=O)sc1-c1ccnc(C(C)(C)C(F)(F)F)c1 under 60%?
Response: rule not met

Prompt: Quick check: viability, T/C of Cn1nccc1Nc1nccc(-c2ccn(C(CO)c3ccc(Cl)c(F)c3)c(=O)c2)n1 (configuration not stated) + CC(Nc1ncnc2nc[nH]c12)c1cc2cccc(Cl)c2c(=O)n1-c1ccccc1 under 60%?
Response: rule met
